target.or.system: Amine oxidase [flavin-containing] B (Homo sapiens, UniProt P27338)
Sequence (P27338 whole entry): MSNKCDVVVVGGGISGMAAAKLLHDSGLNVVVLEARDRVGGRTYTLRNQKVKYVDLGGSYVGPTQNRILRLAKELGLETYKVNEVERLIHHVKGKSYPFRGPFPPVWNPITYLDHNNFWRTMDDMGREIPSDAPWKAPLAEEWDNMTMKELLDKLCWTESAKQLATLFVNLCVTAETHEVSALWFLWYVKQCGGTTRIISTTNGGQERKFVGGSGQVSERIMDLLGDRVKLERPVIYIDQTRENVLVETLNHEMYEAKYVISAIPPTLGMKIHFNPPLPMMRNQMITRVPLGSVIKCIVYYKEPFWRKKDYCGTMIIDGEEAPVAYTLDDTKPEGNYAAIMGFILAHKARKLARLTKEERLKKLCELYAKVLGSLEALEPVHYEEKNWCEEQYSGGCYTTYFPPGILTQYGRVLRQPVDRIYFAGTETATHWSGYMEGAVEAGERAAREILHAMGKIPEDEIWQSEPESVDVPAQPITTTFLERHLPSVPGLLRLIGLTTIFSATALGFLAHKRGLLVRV
measurement.description: Inhibition of human recombinant MAO-B expressed in baculovirus infected insect cells assessed as hydrogen peroxide production using p-tyramine as substrate incubated for 30 mins prior to substrate addition measured for 45 mins by Amplex Red monoamine oxidase assay
pIC50: −log10 of the molar value.
measured.property: pIC50

See these solved cases before continuing.
- smiles.entry: "C#CCCCOc1ccc2cc(C(=O)N3CCN(C(=O)OC(C)(C)C)CC3)c(=O)oc2c1"
  target.or.system: "Amine oxidase [flavin-containing] B (Homo sapiens, UniProt P27338)"
  pIC50: 5.00
- smiles.entry: "C#CCNCCOc1ccc2ccc(=O)oc2c1"
  target.or.system: "Amine oxidase [flavin-containing] B (Homo sapiens, UniProt P27338)"
  pIC50: 6.07
- smiles.entry: "C#CCCCCOc1ccc2cc(C(=O)c3ccc(OC)cc3)c(=O)oc2c1"
  target.or.system: "Amine oxidase [flavin-containing] B (Homo sapiens, UniProt P27338)"
  pIC50: 7.17
- smiles.entry: "C#CCCCCOc1ccc2ccc(=O)oc2c1"
  target.or.system: "Amine oxidase [flavin-containing] B (Homo sapiens, UniProt P27338)"
  pIC50: 8.58
- smiles.entry: "C#CCCCCOc1ccc2c(C)cc(=O)oc2c1"
  target.or.system: "Amine oxidase [flavin-containing] B (Homo sapiens, UniProt P27338)"
  pIC50: 9.11
- smiles.entry: "COC(=O)c1cc2ccc(OCCc3ccc(Cl)cc3)cc2oc1=O"
  target.or.system: "Amine oxidase [flavin-containing] B (Homo sapiens, UniProt P27338)"
  pIC50: 8.85

a: C#CCCCCOc1ccc2oc(=O)c(C(=O)OC)cc2c1
b: C#CCCCCOc1ccc2cc(C(=O)OC)c(=O)oc2c1
Which of the two items, a and b , has the greater recorded pIC50? Refer to your chosen item by its label in the answer.
b
(b: 8.85, a: 6.91)

a: COC(=O)c1cc2cc(OCCc3ccc(Cl)cc3)ccc2oc1=O
b: C#CCCCCOc1ccc2c(c1)NC(=O)CC2
Could you check which of a and b has a smaller value for pIC50? Mark your selection by writing its label.
a
(a: 6.92, b: 7.28)
